test system: RPS6KA5(Kin.Dom.1-N-terminal); conditions: concentration: 1 μM, replicates: in singlicate; n = 1;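 also: KINOMEscan kinase panel screen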
So I've got a bunch of compounds here, and I need their %Inh values.

So what %Inh did NCCC(NC(=O)c1cc(Br)c(-c2ccnc3[nH]ccc23)s1)c1ccccc1.O=C(O)C(F)(F)F.O=C(O)C(F)(F)F (stereo not shown) [GSK1307810] get with RPS6KA5(Kin.Dom.1-N-terminal)?
46%

So what %Inh did Cl.O=C(Nc1ccc(Oc2ccc3[nH]c(NC(=O)c4ccco4)nc3c2)cc1)Nc1cc(C(F)(F)F)ccc1F [GW683134] get with RPS6KA5(Kin.Dom.1-N-terminal)?
14%

So what %Inh did O=C1NC(=O)C(c2ccccc2Cl)=C1Nc1cccc(Cl)c1 [SB-342409] get with RPS6KA5(Kin.Dom.1-N-terminal)?
2%

So what %Inh did COc1ccc(NC(=O)c2ccoc2)cc1-c1ccc(C(=O)NCC2CC2)cc1 [GW810437] get with RPS6KA5(Kin.Dom.1-N-terminal)?
4%

So what %Inh did COc1cc(Nc2nccc(N3CCC(NS(=O)(=O)c4ccc(NC(C)=O)cc4)CC3)n2)cc(OC)c1OC [GSK1379825] get with RPS6KA5(Kin.Dom.1-N-terminal)?
27%

So what %Inh did CN(c1ccc(NC(=O)N2CCN(CCCN3CCOCC3)CC2)cc1)c1ccnc(Nc2ccc(CS(C)(=O)=O)cc2)n1.Cl [GW830899] get with RPS6KA5(Kin.Dom.1-N-terminal)?
0%

So what %Inh did O=C(Nc1n[nH]c2nc(-c3cccc(O)c3)ccc12)C1CC1 [SB-711805] get with RPS6KA5(Kin.Dom.1-N-terminal)?
0%

----------
system: CDK11; construct: gene CDK19; details: concentration: 1 μM, replicates: in singlicate; n = 1
readout.kind: %Inh (%)
Numeric only. Scale: %

So what %Inh did N#CC1(c2cccc(C(=O)Nc3cccc(Oc4ccc5nc(NC(=O)C6CC6)sc5n4)c3)c2)CC1 get with CDK11?
24

So what %Inh did NCCC(NC(=O)c1cc(Br)c(-c2ccnc3[nH]ccc23)s1)c1ccccc1.O=C(O)C(F)(F)F.O=C(O)C(F)(F)F (stereo not shown) get with CDK11?
58

So what %Inh did CN(c1ccc(F)c(NC(=O)c2cccc(OC(C)(C)C#N)c2Cl)c1)c1ccc2nc(NC(=O)C3CC3)sc2n1 get with CDK11?
0

So what %Inh did COC(=O)Nc1nc2ccc(Oc3ccc(CC(=O)Nc4cc(C(F)(F)F)ccc4F)cc3)cc2[nH]1 get with CDK11?
0

----------
test system: BTK; settings: concentration: 1 μM, replicates: in singlicate; n = 1
So I've got a bunch of compounds here, and I need their %Inh values.
Numeric only. Scale: %

# lookup: %Inh of COc1ccc(C)c(Nc2ccnc(Nc3ccc(-c4cnc[nH]4)cc3)n2)c1.Cl [GW784041]
0

# lookup: %Inh of Cc1ccccc1CC(=O)N1CCc2cc(-c3cn(C)c4ncnc(N)c34)ccc21 [GSK2603346]
0

# lookup: %Inh of Cn1cc(-c2cnc(N)c3c(-c4ccc5c(c4)CCN5C(=O)Cc4ccccc4)csc23)cn1 [GSK2593074]
0

# lookup: %Inh of Cc1ccc(NC(=O)c2ccnc(N3CCCCC3)c2)cc1-c1ccc(C(=O)NCC2CC2)cc1 [GW775610]
0

# lookup: %Inh of Cc1ccc(O)cc1Nc1ccnc2cc(-c3ccc(CN4CCCCC4)o3)ccc12 [GW557777]
19

# lookup: %Inh of CCNC(=O)/C=C/c1n[nH]c2cc(Sc3ccccc3C(=O)NC)ccc12
0

# lookup: %Inh of COc1cccc(C2=C(Nc3cccc(O)c3)C(=O)NC2=O)c1 [SB-390771]
0

# lookup: %Inh of NCCC(NC(=O)c1cc(Br)c(-c2ccnc3[nH]ccc23)s1)c1ccccc1.O=C(O)C(F)(F)F.O=C(O)C(F)(F)F (centres unmarked) [GSK1307810]
24

# lookup: %Inh of O=C(O)C(F)(F)F.O=c1[nH]ccc2nc(N[C@@H]3CCNC3)nc(Nc3ccc4c(c3)S(=O)(=O)CC4)c12 [GSK2181306]
29

# lookup: %Inh of Cc1cc(-c2ccnc(Nc3cccc(C#N)c3)n2)cc(C)c1O [GSK1440913]
14

# lookup: %Inh of COC(=O)Nc1nc2cc(Oc3ccc(NC(=O)Nc4cccc(SC)c4)cc3)ccc2[nH]1.Cl [GW697999]
2

# lookup: %Inh of CCOc1nccc(-c2c(-c3ccc(F)cc3)ncn2C2CCNCC2)n1 [SB-249175]
34

# lookup: %Inh of CC(C)NCC(Cc1ccccc1)NC(=O)c1cc(Br)c(-c2ccnc3[nH]ccc23)s1.Cl.Cl (centres unmarked) [GSK1383281]
0

# lookup: %Inh of O=C(Nc1n[nH]c2nc(-c3ccccc3O)ccc12)C1CC1 [SB-711880]
0

# lookup: %Inh of CC(=O)Nc1cn2nc(Oc3cccc(NC(=O)c4cccc(C(F)(F)F)c4)c3)ccc2n1
4

# lookup: %Inh of Cc1cccc(Nc2nc(N[C@H]3CCCC[C@H]3N)ncc2C(N)=O)c1.Cl [GSK986310]
0

# lookup: %Inh of O=C(Nc1c(F)cccc1F)c1cc(C(=O)c2ccccc2F)c[nH]1 [GSK1326180]
0

# lookup: %Inh of CC(C)c1nc(-c2ccc(F)c(NS(=O)(=O)c3c(F)cccc3F)c2)c(-c2ccnc(Nc3ccc(N4CCOCC4)nc3)n2)s1 [GSK1804250]
90

# lookup: %Inh of CN1CCN(Cc2ccc(NC(=O)Nc3ccc(N(C)c4ccnc(Nc5ccc(CS(C)(=O)=O)cc5)n4)cc3)cc2)CC1.Cl [GW827654]
60

# lookup: %Inh of COc1cc(Nc2nccc(N3CCC(NS(=O)(=O)c4ccc(NC(C)=O)cc4)CC3)n2)cc(OC)c1OC [GSK1379825]
0

# lookup: %Inh of Cc1cc(-c2c(-c3ccc(F)cc3)ncn2CCCN2CCOCC2)nc(N)n1 [SB-222517]
0

# lookup: %Inh of O=C(Nc1n[nH]c2nc(-c3cccc(O)c3)ccc12)C1CC1 [SB-711805]
0

# lookup: %Inh of COc1ccc(NC(=O)c2ccoc2)cc1-c1ccc(C(=O)NCC2CC2)cc1 [GW810437]
0

# lookup: %Inh of Cc1ccc(NC(=O)c2cccc(N3CCCCC3)c2)cc1-c1ccc(C(=O)NCC2CC2)cc1 [GSK1917008]
0

# lookup: %Inh of O=C(Nc1n[nH]c2nc(-c3ccccc3)ccc12)C1CC1 [SB-708999]
40

# lookup: %Inh of Nc1ncc(-c2ccc3nccc(-c4ccncc4)c3c2)cc1S(=O)(=O)N1CCCCC1 [GSK1693850]
0

# lookup: %Inh of CCNc1nccc(-c2c(-c3ccc(F)cc3)ncn2C2CCN(C)CC2)n1
0

# lookup: %Inh of N#Cc1cnc2cc(-c3cnc(CNCCN4CCOCC4)s3)ccc2c1Nc1ccc(Oc2ccccc2)cc1 [GW664114]
93.9

# lookup: %Inh of CN(C)CCNS(=O)(=O)c1ccc(-c2ccnc3[nH]ccc23)cc1 [GSK977620]
0

# lookup: %Inh of Cc1cccc(Nc2nc(NCCN)ncc2C(N)=O)c1 [GSK1292139]
0

# lookup: %Inh of Cc1ccc(-c2ccc3occ(-c4ccc(S(C)=O)cc4)c3c2)nn1 (centres unmarked)
0

# lookup: %Inh of CN(C)CCOc1ccc(-c2cc(-c3ccc(Cl)c(O)c3)c(-c3ccncc3)[nH]2)cc1.Cl.Cl [SB-684387]
0

# lookup: %Inh of COc1cccc2c(-c3ccncc3)c(-c3ccc(F)cc3)nn12 [GW468513]
0

# lookup: %Inh of CNc1nccc(-c2ccc3c(N)n[nH]c3c2)n1 [GSK2206003]
3

# lookup: %Inh of CN(c1ccc(NC(=O)Nc2cccc(Cl)c2)cc1)c1ccnc(N)n1.Cl [GW830707]
0
